System: Staphylococcus aureus 2012 (VISA)
assay: MIC by broth microdilution, SA 2012
Type: cell-based
stated_conditions: Staphylococcus aureus 2012 (VISA); class symbols; read-out: MIC SA 2012
# reported MIC; entries follow

>  <compound>
CCCCCCc1ccc(S(=O)(=O)NCCCCCCNCc2c(O)cc3c(c2O)-c2cc(ccc2O)[C@H]2NC(=O)[C@@H]4NC(=O)[C@H](CC(N)=O)NC(=O)[C@H](NC(=O)[C@@H](CC(C)C)NC)[C@H](O)c5ccc(c(Cl)c5)Oc5cc4cc(c5O[C@@H]4O[C@H](CO)[C@@H](O)[C@H](O)[C@H]4O[C@H]4C[C@](C)(NC(=O)CN)[C@H](O)[C@H](C)O4)Oc4ccc(cc4Cl)[C@@H](O)[C@H](NC2=O)C(=O)N[C@@H]3C(=O)O)cc1 (atropisomer, axis not shown)

>  <measurement_type>
MIC

>  <obs_value>
0.01 to 0.5 µg/mL

$$$$

The record that follows has no MIC shown yet.
Quote MIC reported for CCCCCOc1ccc(S(=O)(=O)NCCCCCCNCc2c(O)cc3c(c2O)-c2cc(ccc2O)[C@H]2NC(=O)[C@@H]4NC(=O)[C@H](CC(N)=O)NC(=O)[C@H](NC(=O)[C@@H](CC(C)C)NC)[C@H](O)c5ccc(c(Cl)c5)Oc5cc4cc(c5O[C@@H]4O[C@H](CO)[C@@H](O)[C@H](O)[C@H]4O[C@H]4C[C@](C)(NC(=O)CN)[C@H](O)[C@H](C)O4)Oc4ccc(cc4Cl)[C@@H](O)[C@H](NC2=O)C(=O)N[C@@H]3C(=O)O)cc1 (atropisomer, axis not shown) please.
0.01 to 0.5 µg/mL
